Test system: A498
experimental-details: AUC of dose-response viability curve, drug alone (arbitrary (AUC of normalised viability)); higher = less growth inhibition
measurement-parameters: treatment: drug alone; 5 days
reported-metric: AUC of dose-response viability curve
Write the value as a bare number.

compound | reported-metric | observed-result
Cc1ccc(F)c(NC(=O)Nc2ccc(-c3cccc4[nH]nc(N)c34)cc2)c1 [Linifanib (ABT-869)] | AUC of dose-response viability curve | 3.32
Nc1nc(NCCNc2ncc(-n3ccnc3)c(-c3ccc(Cl)cc3Cl)n2)ccc1[N+](=O)[O-] | AUC of dose-response viability curve | 4.54
NC(=O)c1ccc(N(C(N)=O)c2c(F)cccc2F)nc1-c1ccc(F)cc1F [VX-702] | AUC of dose-response viability curve | 3.72

Need AUC of dose-response viability curve of CS(=O)(=O)O.O=C(Nc1cccc(Cl)c1)Nc1ncc(CCNc2ncnc3ccsc23)s1 [SNS-314] , thanks.
4.02

Need AUC of dose-response viability curve of COc1cc2ncnc(Nc3ccc(F)c(Cl)c3)c2cc1OCCCN1CCOCC1 [Gefitinib (Iressa)] , thanks.
4.53

Need AUC of dose-response viability curve of Cn1cc(-c2ccc3nnc(Sc4ccc5ncccc5c4)n3n2)cn1 [SGX-523] , thanks.
3.75

Need AUC of dose-response viability curve of COC1=CC(c2cc3ccccc3[nH]2)=N/C1=C\c1[nH]c(C)cc1C.CS(=O)(=O)O [Obatoclax mesylate (GX15-070)] , thanks.
1.95

Need AUC of dose-response viability curve of CC1CCN(C(=O)CC#N)C[C@@H]1N(C)c1ncnc2[nH]ccc12.O=C(O)CC(O)(CC(=O)O)C(=O)O (stereo in doubt) , thanks.
3.54

Need AUC of dose-response viability curve of CC(C)(C)c1cc(NC(=O)Nc2ccc(-c3cn4c(n3)sc3cc(OCCN5CCOCC5)ccc34)cc2)no1 [Quizartinib (AC220)] , thanks.
4.53

Need AUC of dose-response viability curve of COc1cc(Nc2ncc(F)c(Nc3ccc4c(n3)N(COP(=O)(O)O)C(=O)C(C)(C)O4)n2)cc(OC)c1OC [R788 (Fostamatinib)] , thanks.
4.24

Need AUC of dose-response viability curve of CCS(=O)(=O)c1cccc(-c2cc(C(=O)NC3CCN(C)CC3)c(C)c3[nH]c4ncc(C)cc4c23)c1 [TAK-901] , thanks.
3.09

Need AUC of dose-response viability curve of O=C1c2ccccc2-c2n[nH]c3cccc1c23 , thanks.
4.19

Need AUC of dose-response viability curve of Cc1ccc(S(=O)(=O)Nc2nc3ccccc3nc2Nc2ccc3nsnc3c2)cc1 [XL147] , thanks.
3.61

Need AUC of dose-response viability curve of Cc1cc(C)c(/C=C2\C(=O)Nc3ccccc32)[nH]1 [Semaxanib (SU5416)] , thanks.
3.76

Need AUC of dose-response viability curve of COc1ccc(-c2ccc3c(N4CCOC[C@@H]4C)nc(N4CCOC[C@@H]4C)nc3n2)cc1CO [AZD8055] , thanks.
2.4

Need AUC of dose-response viability curve of COC[C@H]1OC(=O)c2coc3c2[C@@]1(C)C1=C(C3=O)[C@@H]2CCC(=O)[C@@]2(C)C[C@@H]1OC(C)=O [Wortmannin] , thanks.
3.03

Need AUC of dose-response viability curve of O=C1NC(=O)/C(=C/c2ccc3nccnc3c2)S1 , thanks.
3.39

Need AUC of dose-response viability curve of CN1CCN(CCOc2cc(OC3CCOCC3)c3c(Nc4c(Cl)ccc5c4OCO5)ncnc3c2)CC1 [Saracatinib (AZD0530)] , thanks.
3.69

Need AUC of dose-response viability curve of Cc1ncc(-c2ccnc(Nc3ccc(S(C)(=O)=O)cc3)n2)n1C(C)C [AZD5438] , thanks.
2.44

Need AUC of dose-response viability curve of CCN1CCN(c2ccc(Nc3cc(N(C)C(=O)Nc4c(Cl)c(OC)cc(OC)c4Cl)ncn3)cc2)CC1 [BGJ398 (NVP-BGJ398)] , thanks.
3.84

Need AUC of dose-response viability curve of CO[C@H]1C[C@@H]2CC[C@@H](C)[C@@](O)(O2)C(=O)C(=O)N2CCCC[C@H]2C(=O)O[C@H]([C@H](C)C[C@@H]2CC[C@@H](OCCO)[C@H](OC)C2)CC(=O)[C@H](C)/C=C(\C)[C@@H](O)[C@@H](OC)C(=O)[C@H](C)C[C@H](C)/C=C/C=C/C=C/1C [Everolimus (RAD001)] , thanks.
3.45

Need AUC of dose-response viability curve of Cc1ccc(Nc2nccc(N(C)c3ccc4c(C)n(C)nc4c3)n2)cc1S(N)(=O)=O.Cl [Pazopanib HCl] , thanks.
3.57

Need AUC of dose-response viability curve of CC(=O)c1c(C)c2cnc(Nc3ccc(N4CCNCC4)cn3)nc2n(C2CCCC2)c1=O.Cl , thanks.
4.74

Need AUC of dose-response viability curve of COC(=O)Nc1ccc(-c2nc(N3CCOCC3)c3cnn(C4CCN(C(=O)OC)CC4)c3n2)cc1 [WYE-354] , thanks.
3.73

Need AUC of dose-response viability curve of CC[C@H](CO)Nc1nc(NCc2ccccc2)c2ncn(C(C)C)c2n1 [Roscovitine (Seliciclib, CYC202)] , thanks.
3.91

----------
System: UO-31
experimental-details: GI50 of drug in presence of dasatinib; higher = less potent
measurement-parameters: treatment: drug + dasatinib (fixed dose, not stated); 5 days
reported-metric: GI50 of drug (nM)
Please give a number only; it is taken to be in nM.

compound | GI50 of drug (nM)
N#CCNC(=O)c1ccc(-c2ccnc(Nc3ccc(N4CCOCC4)cc3)n2)cc1 [Cyt387] + Cc1nc(Nc2ncc(C(=O)Nc3c(C)cccc3Cl)s2)cc(N2CCN(CCO)CC2)n1 | 2550

Need GI50 of drug of CC(C)CC(=O)Nc1n[nH]c2c1CN(C(=O)C1CCN(C)CC1)C2(C)C + Cc1nc(Nc2ncc(C(=O)Nc3c(C)cccc3Cl)s2)cc(N2CCN(CCO)CC2)n1 , thanks.
1960

----------
Test system: CAKI-1
experimental-details: GI50 of drug in presence of dasatinib; higher = less potent
measurement-parameters: treatment: drug + dasatinib (fixed dose, not stated); 5 days
This listing pairs compounds with measured GI50 of drug.
Please give a number only; it is taken to be in nM.

Observe how each entry below is paired with its result.
compound | target-or-system | GI50 of drug, nM
COCCOc1ccc2c(c1)ncn2-c1ccc2cccc(N3CCC(N)CC3)c2n1 + Cc1nc(Nc2ncc(C(=O)Nc3c(C)cccc3Cl)s2)cc(N2CCN(CCO)CC2)n1 [dasatinib] | CAKI-1 | 471
Cc1ccc(NC(=O)c2cccc(C(C)(C)C#N)c2)cc1Nc1ccc2ncn(C)c(=O)c2c1 [AZ628] + Cc1nc(Nc2ncc(C(=O)Nc3c(C)cccc3Cl)s2)cc(N2CCN(CCO)CC2)n1 [dasatinib] | CAKI-1 | 1120
Cc1cc(Nc2cc(N3CCN(C)CC3)nc(/C=C/c3ccccc3)n2)n[nH]1.O=C(O)[C@H](O)[C@@H](O)C(=O)O [ENMD-2076] + Cc1nc(Nc2ncc(C(=O)Nc3c(C)cccc3Cl)s2)cc(N2CCN(CCO)CC2)n1 [dasatinib] | CAKI-1 | 194
C=CCc1cccc(/C=N/NC(=O)CN2CCN(Cc3ccccc3)CC2)c1O [PAC-1] + Cc1nc(Nc2ncc(C(=O)Nc3c(C)cccc3Cl)s2)cc(N2CCN(CCO)CC2)n1 [dasatinib] | CAKI-1 | 1350
CCOc1cc2ncc(C#N)c(Nc3ccc(OCc4ccccn4)c(Cl)c3)c2cc1NC(=O)/C=C/CN(C)C [Neratinib (HKI-272)] + Cc1nc(Nc2ncc(C(=O)Nc3c(C)cccc3Cl)s2)cc(N2CCN(CCO)CC2)n1 [dasatinib] | CAKI-1 | 114

Need GI50 of drug of Cn1cc(-c2ccc3nnc(Sc4ccc5ncccc5c4)n3n2)cn1 [SGX-523] + Cc1nc(Nc2ncc(C(=O)Nc3c(C)cccc3Cl)s2)cc(N2CCN(CCO)CC2)n1 [dasatinib] , thanks.
5500

----------
Tested on: CAKI-1
experimental-details: minimum viability across doses, drug alone, relative to DMSO (fraction); higher = less growth inhibition
measurement-parameters: treatment: drug alone; 5 days
minimum viability across doses strictly less than 0.2 = y. Otherwise n.

compound | category
Cl.Cl.NC1(c2ccc(-c3nc4ccn5c(=O)[nH]nc5c4cc3-c3ccccc3)cc2)CCC1 [MK-2206 dihydrochloride] | n
Nc1ncnc2c1c(-c1cnc3[nH]ccc3c1)nn2C1CCCC1 [PP-121] | y
CNC(=O)c1cccc(-c2ccc3c(N4CCOC[C@@H]4C)nc(N4CCOC[C@@H]4C)nc3n2)c1 [AZD2014] | y

API: the following record is the query input.
Is the reported minimum viability across doses for Cn1cnc(-c2cc3nccc(Oc4ccc(NC(=S)NC(=O)Cc5ccccc5)cc4F)c3s2)c1 [MGCD-265] strictly below 0.2?
n
